Below, each of the molecules is paired with its reported TGI value.
tested on: SK-MEL-28 melanoma; test: NCI tumour cell line growth inhibition, 48 h
READOUT_LABEL: TGI

molecule=CC1=C(C(=O)Nc2ccccc2C)C(c2ccc(C3C(C(=O)Nc4ccccc4C)=C(C)NC(C)=C3C(=O)Nc3ccccc3C)cc2)C(C(=O)Nc2ccccc2C)=C(C)N1 test_value="4.26 µM"
molecule=C#CCSc1n[nH]c(-c2ccco2)n1 test_value="> 100 µM"
molecule="C=CC(CBr)CCC(Br)C(C)(C)Br (centres undefined)" test_value="> 10 µM"
molecule=O=C1c2sc(-c3ccc(F)cc3)cc2-n2cccc21 test_value="> 100 µM"
molecule=c1ccc(N=C(N2CCOCC2)N(CCN2CCOCC2)c2ccccc2)cc1 test_value="> 100 µM"
molecule=CCNCCC1(CC)C(=O)NC(=O)NC1=O test_value="> 100 µM"
molecule=Cc1ccc2nc(N/N=C/c3ccc(C)s3)cc(C)c2c1 test_value="28.9 µM"
molecule=Nc1nc(Cl)cc(NCCCNc2cc(Cl)nc(N)n2)n1 test_value="> 100 µM"
molecule=CCOC(=O)/C(C=Nc1c(C)n(C)n(-c2ccccc2)c1=O)=C(/O)c1ccccc1 test_value="> 100 µM"
molecule="COc1cc(C2SCC(=O)N2Cc2ccccc2)cc(OC)c1OC (centres undefined)" test_value="> 100 µM"
molecule=O=C(CSc1nnc(Cc2ccccc2)o1)Nc1cccc(Cl)c1 test_value="> 100 µM"
molecule=COc1cccc(NC(=O)C(C)(C)C)c1C=O test_value="> 100 µM"
molecule=Cc1cc(=O)oc2cc(SC(=O)N(C)C)ccc12 test_value="> 100 µM"
molecule=CC(=O)OCc1ccc2oc(=O)c(C(=O)Oc3cccc(Cl)c3)cc2c1 test_value="> 100 µM"
molecule=CCc1n[nH]c(=O)n1N1C(=O)CCC1=O test_value="> 100 µM"
molecule="CC1=C(C#N)C23C(=O)c4ccccc4C(O)=C2C(=O)C=CC3(O)N1 (centres undefined)" test_value="5.23 µM"
molecule=Cc1c(-c2ccccc2)c(=O)oc2ccc(Cl)cc12 test_value="> 100 µM"
molecule=CC1=CC=C2c3ccccc3C=CN2C(=O)C1 test_value="> 100 µM"
molecule=COc1ccc(/C=N/n2c(=O)[nH]c3ccccc3c2=O)cc1 test_value="> 100 µM"

These measurements were taken from PubChem BioAssay (NCI).
